Ref: PubChem BioAssay (NCI)

# reported TGI; entries follow
Tested on: NCI-H23 lung
Test: NCI tumour cell line growth inhibition, 48 h

1) OCCSCc1cc2c(O)c(c1)Cc1cc(CSCCO)cc(c1O)Cc1cc(CSCCO)cc(c1O)Cc1cc(CSCCO)cc(c1O)C2 : 16.7 µM

Data request: Request - read-out TGI | tested on NCI-H23 lung | molecule CC(C)C[C@H](NC(=O)CCc1ccccc1)B(O)O
Data returned: > 100 µM

Data request: Observed TGI on NCI-H23 lung for O=c1oc2cc(O)ccc2c(O)c1C(c1ccccn1)c1c(O)c2ccc(O)cc2oc1=O , please.
Data returned: > 100 µM

Data request: Item CC(=O)NCCCCCCNC(C)=O with NCI-H23 lung - TGI?
Data returned: > 10000 µM

Data request: Query for NCI-H23 lung: what TGI does the record show for Cc1[nH]n(-c2nc3c(c(=O)[nH]2)CCC3)c(=O)c1CCO ?
Data returned: > 100 µM

Data request: Entry Nc1nc(Cl)cc(NCC2(CO)CCC2)n1 , system NCI-H23 lung: what TGI was measured?
Data returned: > 100 µM

Data request: Enter reported TGI observed with NCI-H23 lung for COc1ccc(Nc2nc(N)c(C(=O)c3ccc(OC)cc3)s2)cc1
Data returned: > 93.4 µM

Data request: Record lookup: for NCI-H23 lung, what TGI belongs to C#CCOc1ccc2ncnc(Nc3ccc(NC(=O)CCl)cc3)c2c1 ?
Data returned: 18.4 µM

Data request: Notebook entry, NCI-H23 lung assay: TGI of CCOC(=O)N1C/C(=C/c2ccc(OC)cc2)C(=O)/C(=C/c2ccc(OC)cc2)C1 = ?
Data returned: 20.2 µM

Data request: Quick check: TGI on NCI-H23 lung, item O=c1oc2ccccc2cc1-c1nnc(-c2ccccc2)s1 ?
Data returned: > 100 µM

Data request: Under NCI-H23 lung: TGI value of O=C(N/C(=C\c1ccc(Br)cc1)c1nc2ccccc2s1)c1ccccc1 ?
Data returned: > 100 µM

Data request: Provide the documented TGI with NCI-H23 lung as the system for COc1cc(-c2nc(SCC(=O)Nc3ccc(C(C)=O)cc3)[nH]c(=O)c2C#N)cc(OC)c1OC
Data returned: > 100 µM

Data request: Request - read-out TGI | tested on NCI-H23 lung | molecule CO/C(=N\N=C\c1ccc(OC)cc1OC)c1ccncc1
Data returned: > 10 µM

Data request: Short answer please: TGI, NCI-H23 lung, entry CC1=CCC[C@@](C)(O)[C@@H]2C[C@H]3C(CSc4ccccc4)C(=O)O[C@H]3[C@@H](O2)[C@H](C)CCC1 (stereo partly specified)
Data returned: 33.8 µM

----------
Test system: SK-MEL-5 melanoma
Experiment: NCI tumour cell line growth inhibition, 48 h; in the data active = GI50 below about 0.43 µM; inactive = the rest
Bench note: report the call from active, inactive

Here's what some known entries look like.
1. COc1cc(C2CC(c3ccc4c(c3)OCO4)=NN2C(C)=O)cc(OC)c1OC (stereo not drawn) : active
2. CC1CCC2C(C)C3C(CC4C5CC=C6CC(OC7OC(CO)C(O)C(OC8OC(CO)C(O)C(O)C8O)C7OC7OC(C)C(O)C(O)C7O)CCC6(C)C5CCC43C)N2C1 (stereo not drawn) : inactive

Moving on to the next molecule.
Data request: Assay outcome for CCOC(=O)c1cc2cc(NC(=O)c3cc4cc([N+](=O)[O-])ccc4n3C)ccc2n1C : what was it?
Data returned: inactive
